# pIC50 per entry
# tested on: recombinant integrin α4β7 (Homo sapiens, UniProt P13612+P26010, DEL724-798)
# Construct: purchased R&D Systems 5397-A3-050
# Sequence (P13612 34-970 limits assumed): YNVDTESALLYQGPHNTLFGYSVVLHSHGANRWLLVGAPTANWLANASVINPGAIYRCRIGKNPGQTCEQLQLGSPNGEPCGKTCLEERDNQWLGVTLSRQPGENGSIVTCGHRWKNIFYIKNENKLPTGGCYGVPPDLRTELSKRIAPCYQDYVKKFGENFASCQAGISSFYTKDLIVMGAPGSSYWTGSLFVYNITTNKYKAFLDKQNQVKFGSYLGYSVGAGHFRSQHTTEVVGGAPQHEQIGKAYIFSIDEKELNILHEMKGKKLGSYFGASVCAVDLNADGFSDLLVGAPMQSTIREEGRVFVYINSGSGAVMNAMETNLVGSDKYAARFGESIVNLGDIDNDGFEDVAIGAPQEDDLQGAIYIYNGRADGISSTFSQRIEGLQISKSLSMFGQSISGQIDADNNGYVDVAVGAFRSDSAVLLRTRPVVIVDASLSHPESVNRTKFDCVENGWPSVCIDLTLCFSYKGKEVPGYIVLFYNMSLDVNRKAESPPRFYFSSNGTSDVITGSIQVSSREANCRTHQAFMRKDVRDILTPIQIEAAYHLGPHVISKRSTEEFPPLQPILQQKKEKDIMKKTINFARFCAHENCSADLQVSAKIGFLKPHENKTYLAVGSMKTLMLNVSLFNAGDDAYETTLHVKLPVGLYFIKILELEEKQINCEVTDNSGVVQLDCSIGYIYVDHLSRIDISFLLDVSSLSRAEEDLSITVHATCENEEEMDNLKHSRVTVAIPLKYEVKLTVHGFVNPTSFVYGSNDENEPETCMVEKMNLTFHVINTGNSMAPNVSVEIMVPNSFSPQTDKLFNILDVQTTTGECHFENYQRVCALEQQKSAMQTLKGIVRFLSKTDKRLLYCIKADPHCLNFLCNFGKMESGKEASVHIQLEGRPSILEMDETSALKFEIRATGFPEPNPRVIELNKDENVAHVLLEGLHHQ
# Sequence (P26010 20-723 limits assumed): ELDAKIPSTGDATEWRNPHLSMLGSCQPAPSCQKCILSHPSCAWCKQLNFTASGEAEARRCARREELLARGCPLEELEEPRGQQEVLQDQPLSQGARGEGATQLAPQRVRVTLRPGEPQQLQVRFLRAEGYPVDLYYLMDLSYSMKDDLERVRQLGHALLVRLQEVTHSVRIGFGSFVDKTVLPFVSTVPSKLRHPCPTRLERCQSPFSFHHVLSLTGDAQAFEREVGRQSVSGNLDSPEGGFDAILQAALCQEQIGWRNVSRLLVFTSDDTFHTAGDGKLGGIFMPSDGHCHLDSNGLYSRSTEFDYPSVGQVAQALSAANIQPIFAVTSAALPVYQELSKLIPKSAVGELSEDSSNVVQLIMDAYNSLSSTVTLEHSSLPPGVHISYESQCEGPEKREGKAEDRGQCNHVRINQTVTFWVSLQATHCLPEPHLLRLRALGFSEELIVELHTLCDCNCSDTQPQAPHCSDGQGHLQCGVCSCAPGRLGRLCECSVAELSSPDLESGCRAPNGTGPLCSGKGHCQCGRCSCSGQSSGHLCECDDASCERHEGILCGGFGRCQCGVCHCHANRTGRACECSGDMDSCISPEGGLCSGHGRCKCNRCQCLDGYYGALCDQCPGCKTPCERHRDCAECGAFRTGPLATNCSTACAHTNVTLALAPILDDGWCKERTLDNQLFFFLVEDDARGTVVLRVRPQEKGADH
# assay text: Integrin α4β7—MAdCAM-1 ELISA competition assay
# Type: binding
# experimental context: read-out: ELISA a4b7 Assay IC50
pIC50: −log10 of the molar value.
experimental readout: pIC50

compound_structure_string=CC(C)C[C@@H]1NC(=O)C[C@H](CCCCN)NC(=O)[C@H](Cc2cccc(I)c2)NC(=O)[C@@H]2CCCN2[C@H](C(=O)NC(C)(C)C)[C@H](C)NC(=O)[C@H]([C@@H](C)O)NC(=O)[C@H](CC(=O)O)NC1=O recorded_number=7.37
compound_structure_string=COc1cccc(Cl)c1-c1cccc(C[C@@H]2NC(=O)[C@@H]3CCCN3[C@H](C(=O)NC(C)(C)C)[C@H](C)NC(=O)[C@H]([C@@H](C)O)NC(=O)[C@H](CC(=O)O)NC(=O)[C@H](CC(C)C)NC(=O)C[C@H](CCCCN)NC2=O)c1 recorded_number=7.12
compound_structure_string=CC(C)C[C@@H]1NC(=O)[C@H](Cc2csc(-c3cccnc3)n2)NC(=O)[C@@H]2CCCN2[C@H](C(=O)NC(C)(C)C)[C@H](C)NC(=O)[C@H]([C@@H](C)O)NC(=O)[C@H](CC(=O)O)NC1=O recorded_number=6.86
compound_structure_string=CC(C)C[C@@H]1NC(=O)C2(CCCC2)NC(=O)[C@@H]2CCCN2[C@H](C(=O)NC(C)(C)C)[C@H](C)NC(=O)[C@H]([C@@H](C)O)NC(=O)[C@H](CC(=O)O)NC1=O recorded_number=7.96

###

# tested on: recombinant integrin α4β7 (Homo sapiens, UniProt P13612+P26010, DEL724-798)
# Construct: purchased R&D Systems 5397-A3-050
# assay text: Integrin α4β7—MAdCAM-1 ELISA competition assay
# Assay type: binding
# experimental context: read-out: ELISA a4b7 Assay IC50
pIC50: −log10 of the molar value.
experimental readout: pIC50

compound=CC(C)C[C@@H]1NC(=O)[C@H](Cc2ccncc2)NC(=O)[C@@H]2CCCN2[C@H](C(=O)NC(C)(C)C)[C@H](C)NC(=O)[C@H]([C@@H](C)O)NC(=O)[C@H](CC(=O)O)NC1=O recorded_number=6.72
compound=CC(C)C[C@@H]1NC(=O)[C@H](Cc2ccc3ccccc3c2)NC(=O)[C@@H]2CCCN2[C@H](C(=O)NC(C)(C)C)[C@H](C)NC(=O)[C@H]([C@@H](C)O)NC(=O)[C@H](CC(=O)O)NC1=O recorded_number=7.28
compound=CC[C@H](C)[C@@H]1NC(=O)[C@H](CC(=O)O)NC(=O)[C@H](CC(C)C)NC(=O)[C@H](Cc2ccc(O)cc2)NC(=O)[C@@H]2CCCN2[C@H](C(=O)NC(C)(C)C)[C@H](C)NC1=O recorded_number=6.74
compound="CC(C)C[C@@H]1NC(=O)C[C@H](CCCCN)NC(=O)C2(CCc3ccccc3C2)NC(=O)[C@@H]2CCCN2[C@H](C(=O)NC(C)(C)C)[C@H](C)NC(=O)[C@H]([C@@H](C)O)NC(=O)[C@H](CC(=O)O)NC1=O (stereo partly shown)" recorded_number=6.92

###

# tested on: recombinant integrin α4β7 (Homo sapiens, UniProt P13612+P26010, DEL724-798)
# Construct: purchased R&D Systems 5397-A3-050
# Sequence (P13612 34-970 limits assumed): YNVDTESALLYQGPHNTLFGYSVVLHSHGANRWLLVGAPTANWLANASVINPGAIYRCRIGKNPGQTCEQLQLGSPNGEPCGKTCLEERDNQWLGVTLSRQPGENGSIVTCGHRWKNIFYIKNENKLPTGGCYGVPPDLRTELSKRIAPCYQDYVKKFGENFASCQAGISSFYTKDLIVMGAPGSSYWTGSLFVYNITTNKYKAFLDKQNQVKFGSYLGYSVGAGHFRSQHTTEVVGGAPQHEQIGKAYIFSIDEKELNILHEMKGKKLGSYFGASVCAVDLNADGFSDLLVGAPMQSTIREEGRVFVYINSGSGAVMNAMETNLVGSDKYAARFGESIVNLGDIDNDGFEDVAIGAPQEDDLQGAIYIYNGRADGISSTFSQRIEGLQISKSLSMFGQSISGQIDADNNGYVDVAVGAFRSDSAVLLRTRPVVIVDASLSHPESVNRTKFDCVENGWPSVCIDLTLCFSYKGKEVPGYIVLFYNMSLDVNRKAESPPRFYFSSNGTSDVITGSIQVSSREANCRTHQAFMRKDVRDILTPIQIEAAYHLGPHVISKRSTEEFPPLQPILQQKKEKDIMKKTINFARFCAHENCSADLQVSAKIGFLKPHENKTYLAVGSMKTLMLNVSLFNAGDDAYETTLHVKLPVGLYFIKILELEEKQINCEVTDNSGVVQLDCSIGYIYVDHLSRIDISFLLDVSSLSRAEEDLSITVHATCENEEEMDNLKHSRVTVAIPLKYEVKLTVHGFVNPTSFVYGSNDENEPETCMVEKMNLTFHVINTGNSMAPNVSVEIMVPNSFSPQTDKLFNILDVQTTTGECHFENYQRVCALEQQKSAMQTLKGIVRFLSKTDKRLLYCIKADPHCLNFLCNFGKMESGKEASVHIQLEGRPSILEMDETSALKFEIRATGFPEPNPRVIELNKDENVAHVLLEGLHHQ
# Sequence (P26010 20-723 limits assumed): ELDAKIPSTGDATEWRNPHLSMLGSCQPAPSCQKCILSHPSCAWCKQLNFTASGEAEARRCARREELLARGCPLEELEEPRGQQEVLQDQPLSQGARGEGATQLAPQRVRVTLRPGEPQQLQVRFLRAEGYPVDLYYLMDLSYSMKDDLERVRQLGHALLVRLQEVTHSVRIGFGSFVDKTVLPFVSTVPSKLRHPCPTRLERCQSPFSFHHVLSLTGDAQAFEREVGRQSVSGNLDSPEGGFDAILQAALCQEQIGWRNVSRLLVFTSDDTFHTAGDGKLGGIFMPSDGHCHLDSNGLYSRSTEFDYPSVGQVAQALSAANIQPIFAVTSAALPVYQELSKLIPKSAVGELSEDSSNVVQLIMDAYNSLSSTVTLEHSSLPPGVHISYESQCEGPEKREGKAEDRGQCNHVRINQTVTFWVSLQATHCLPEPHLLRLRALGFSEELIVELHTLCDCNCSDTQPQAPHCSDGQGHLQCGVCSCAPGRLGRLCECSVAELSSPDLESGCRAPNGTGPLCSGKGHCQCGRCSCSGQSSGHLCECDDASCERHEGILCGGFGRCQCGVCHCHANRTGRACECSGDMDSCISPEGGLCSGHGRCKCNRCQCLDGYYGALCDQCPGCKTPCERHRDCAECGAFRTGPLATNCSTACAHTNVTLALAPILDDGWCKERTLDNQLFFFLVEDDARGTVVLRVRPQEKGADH
# assay text: Integrin α4β7—MAdCAM-1 ELISA competition assay
# Format: binding
# experimental context: ratio of a4b1 to a4b7 ELISA IC50
Property: ELISA Assay Ratio b1/b7; scope: individual molecules
experimental readout: ELISA Assay Ratio b1/b7

molecule="CC(C)C[C@@H]1NC(=O)[C@H](Cc2ccc(O)cc2)NC(=O)[C@@H]2CCCN2C(C(=O)NC(C)(C)C)C(CSc2ccccc2)NC(=O)[C@H](C(C)C)NC(=O)[C@H](CC(=O)O)NC1=O (stereo partly shown)" tested_on="recombinant integrin α4β7 (Homo sapiens, UniProt P13612+P26010, DEL724-798)" recorded_number=0.988
molecule=CC(C)C[C@@H]1NC(=O)CN(C)C(=O)[C@H](Cc2ccc(I)cc2)NC(=O)[C@@H]2CCCN2[C@H](C(=O)NC(C)(C)C)[C@H](C)NC(=O)[C@H]([C@@H](C)O)NC(=O)[C@H](CC(=O)O)NC1=O tested_on="recombinant integrin α4β7 (Homo sapiens, UniProt P13612+P26010, DEL724-798)" recorded_number=16.0
molecule=CC(C)C[C@@H]1NC(=O)[C@H](Cc2ccc3ccccc3c2)NC(=O)[C@@H]2CCCN2[C@H](C(=O)NC(C)(C)C)[C@H](C)NC(=O)[C@H]([C@@H](C)O)NC(=O)[C@H](CC(=O)O)NC1=O tested_on="recombinant integrin α4β7 (Homo sapiens, UniProt P13612+P26010, DEL724-798)" recorded_number=1.3
molecule=CC(C)C[C@@H]1NC(=O)CNC(=O)[C@H](Cc2ccc(CN)cc2)NC(=O)[C@@H]2CCCN2[C@H](C(=O)NC(C)(C)C)[C@H](C)NC(=O)[C@H]([C@@H](C)O)NC(=O)[C@H](CC(=O)O)NC1=O tested_on="recombinant integrin α4β7 (Homo sapiens, UniProt P13612+P26010, DEL724-798)" recorded_number=22.8

Source of measurements: patent US11713338B2
